Source listed as patent US20260151494A1.

biological target: T1, human CD71 extracellular domain (human, UniProt P02786 89-760); test: primary ELISA screen, Screen 4, luminescence; also: test concentration or dose not given here
T1 construct: also called hCD71; CD71-ECD
T1 sequence (P02786 89-760): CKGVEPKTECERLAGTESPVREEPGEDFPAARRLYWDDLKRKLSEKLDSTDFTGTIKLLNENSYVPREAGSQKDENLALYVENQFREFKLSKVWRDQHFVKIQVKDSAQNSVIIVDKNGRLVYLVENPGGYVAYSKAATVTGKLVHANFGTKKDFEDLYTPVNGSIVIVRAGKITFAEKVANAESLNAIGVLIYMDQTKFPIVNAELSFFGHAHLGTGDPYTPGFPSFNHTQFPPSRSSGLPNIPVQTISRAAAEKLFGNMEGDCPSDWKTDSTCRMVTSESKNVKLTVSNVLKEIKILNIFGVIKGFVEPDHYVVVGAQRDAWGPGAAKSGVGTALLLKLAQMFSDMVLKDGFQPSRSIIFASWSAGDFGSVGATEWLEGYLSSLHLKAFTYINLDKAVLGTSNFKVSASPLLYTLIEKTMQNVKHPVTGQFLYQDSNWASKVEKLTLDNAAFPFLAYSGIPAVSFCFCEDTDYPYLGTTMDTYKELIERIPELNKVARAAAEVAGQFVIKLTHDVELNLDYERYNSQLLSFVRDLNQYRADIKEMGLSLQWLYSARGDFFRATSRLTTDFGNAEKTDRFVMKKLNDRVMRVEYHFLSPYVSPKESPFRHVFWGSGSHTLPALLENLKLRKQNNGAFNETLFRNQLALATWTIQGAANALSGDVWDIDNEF
Entries and their measured hCD71, RLU follow.

A selection of reference data follows.
CD71-binding FN3 domain of SEQ ID NO: 547 (designed binder) MLPAPKNLVVSRVTEDSARLSWTAPDAAFDSFFIGYLEPQPPGEAIHLIVPGSERSYDLTGLKPGTEYNVTIQGVKGGFPSDPLVASFTT
4.59e+06 RLU
CD71-binding FN3 domain of SEQ ID NO: 548 (designed binder) MLPAPKNLVVSRVTEDSARLSWTAPDAAFDSFFIGYLEPQPPGEAIYLFVPGSERSYDLTGLKPGTEYNVTIQGVKGGFPSMPLSAIFTT
4.73e+06 RLU
CD71-binding FN3 domain of SEQ ID NO: 550 (designed binder) MLPAPKNLVVSRVTEDSARLSWTAPDAAFDSFFIGYLEPQPPGEAIHLFVPGSERSYDLTGLKPGTEYNVTIQGVKGGFPSIPLYARFTT
4.79e+06 RLU

Kindly review the next binder as well.
*Q* Query: hCD71, RLU; subject: CD71-binding FN3 domain of SEQ ID NO: 546 (designed binder) MLPAPKNLVVSRVTEDSARLSWTAPDAAFDSFEIAYIEVNIQGEAIVLTVPGSERSYDLTGLKPGTEYYVHIGGVKGGPSSSPLSAIFTT
*A* 3.53e+06 RLU
